- System: EMC-BAC-2
- EXPERIMENT_SUMMARY: relative viability (nuclei count vs DMSO), 5 days (fraction); higher = more cells survive
- REPORTED_CONDITIONS: first compound 0.1 µM
Exercise: state measured relative viability for each of the compounds provided.
Please respond with just the number, no unit label.

## Input Please look at O=c1cc(N2CCOCC2)oc2c(-c3cccc4c3sc3ccccc34)cccc12 + Nc1nc2[nH]cc(CCc3ccc(C(=O)N[C@@H](CCC(=O)O)C(=O)O)cc3)c2c(=O)[nH]1 [Pemetrexed] (partner 0.2 µM) and tell me its recorded relative viability on EMC-BAC-2.
## Output 0.457

## Input Please look at O=c1cc(N2CCOCC2)oc2c(-c3cccc4c3sc3ccccc34)cccc12 + N=C(N)NC(=N)NCCc1ccccc1 [Phenformin] (partner 250 µM) and tell me its recorded relative viability on EMC-BAC-2.
## Output 0.55

## Input Please look at CCN(CC)CCCCNc1ncc2cc(-c3cc(OC)cc(OC)c3)c(NC(=O)NC(C)(C)C)nc2n1 + Nc1nc2[nH]cc(CCc3ccc(C(=O)N[C@@H](CCC(=O)O)C(=O)O)cc3)c2c(=O)[nH]1 [Pemetrexed] (partner 0.2 µM) and tell me its recorded relative viability on EMC-BAC-2.
## Output 0.491

## Input Please look at O=c1cc(N2CCOCC2)oc2c(-c3cccc4c3sc3ccccc34)cccc12 + NC(=O)Nc1cc(-c2cccc(F)c2)sc1C(=O)N[C@H]1CCCNC1 [AZD7762] (partner 0.2 µM) and tell me its recorded relative viability on EMC-BAC-2.
## Output 1.19

## Input Please look at CCN(CC)CCCCNc1ncc2cc(-c3cc(OC)cc(OC)c3)c(NC(=O)NC(C)(C)C)nc2n1 + CS(=O)(=O)N1CCN(Cc2cc3nc(-c4cccc5[nH]ncc45)nc(N4CCOCC4)c3s2)CC1 [Pictilisib] (partner 1 µM) and tell me its recorded relative viability on EMC-BAC-2.
## Output 0.546

## Input Please look at O=c1cc(N2CCOCC2)oc2c(-c3cccc4c3sc3ccccc34)cccc12 + CC(C)C[C@H](NC(=O)[C@H](Cc1ccccc1)NC(=O)c1cnccn1)B(O)O [Bortezomib] (partner 0.002 µM) and tell me its recorded relative viability on EMC-BAC-2.
## Output 1.15

## Input Please look at CCN(CC)CCCCNc1ncc2cc(-c3cc(OC)cc(OC)c3)c(NC(=O)NC(C)(C)C)nc2n1 + COc1cccc2cc(-c3nc([C@H]4CC[C@H](C(=O)O)CC4)n4ncnc(N)c34)[nH]c12 [OSI-027] (partner 0.5 µM) and tell me its recorded relative viability on EMC-BAC-2.
## Output 0.398

## Input Please look at CCN(CC)CCCCNc1ncc2cc(-c3cc(OC)cc(OC)c3)c(NC(=O)NC(C)(C)C)nc2n1 + CS(=O)(=O)CCNCc1ccc(-c2ccc3ncnc(Nc4ccc(OCc5cccc(F)c5)c(Cl)c4)c3c2)o1 [Lapatinib] (partner 2 µM) and tell me its recorded relative viability on EMC-BAC-2.
## Output 0.961

## Input Please look at O=c1cc(N2CCOCC2)oc2c(-c3cccc4c3sc3ccccc34)cccc12 + Cc1cc(Nc2cc(N3CCN(C)CC3)nc(Sc3ccc(NC(=O)C4CC4)cc3)n2)n[nH]1 [Tozasertib] (partner 0.1 µM) and tell me its recorded relative viability on EMC-BAC-2.
## Output 0.313
